- Tested on: Lichtheimia corymbifera
- Method: In vitro minimum inhibitory concentration of compound was determined against Absidia corymbifera after 24 hr r
- Type: functional
Readout Name: MIC (µM)

Compound	Output Unit	Value Measured
CC1C=C(c2cccc(F)c2)C(=O)O1 (configuration not stated)	µM	500

(A) CC1C=C(c2ccccc2)C(=O)O1 (configuration not stated)
(B) CC1C=C(c2cccc(Br)c2)C(=O)O1 (configuration not stated)
# returns the entry with the larger MIC; inputs A and B In your reply, give the label of the chosen option.
A
(A: 1000 µM, B: 62.5 µM)

(a) CC1C=C(c2ccc(F)cc2)C(=O)O1 (configuration not stated)
(b) CC1C=C(c2ccc([N+](=O)[O-])cc2)C(=O)O1 (configuration not stated)
(c) COc1ccc(C2=CC(C)OC2=O)cc1 (configuration not stated)
Exam item: list the entries in increasing order of MIC. Write the labels in rank order as requested.
a, b, c

(A) Cc1ccc(C2=CC(C)OC2=O)cc1 (configuration not stated)
(B) CC1C=C(c2ccc(Cl)cc2)C(=O)O1 (configuration not stated)
Pick one, A or B : lowest reported MIC. In your reply, give the label of the chosen option.
B
(B: 125 µM, A: 1000 µM)

(A) CC1C=C(c2ccc(Br)cc2)C(=O)O1 (configuration not stated)
(B) CC1C=C(c2ccc(Cl)c(Cl)c2)C(=O)O1 (configuration not stated)
# returns the entry with the larger MIC; inputs A and B In your reply, give the label of the chosen option.
A

---

- System: Nakaseomyces glabratus
- Method: In vitro minimum inhibitory concentration of compound was determined against Candida glabrata after 48 hr
- Assay type: functional
Readout Name: MIC (µM)

(1) CC1C=C(c2ccc([N+](=O)[O-])cc2)C(=O)O1 (stereo not given)
(2) CC1C=C(c2ccc(F)cc2)C(=O)O1 (stereo not given)
# returns the entry with the larger MIC; inputs 1 and 2 In your reply, give the label of the chosen option.
1

---

- Test system: Aspergillus fumigatus
- Method: In vitro minimum inhibitory concentration of compound was determined against Aspergillus fumigatus after 48 hr
- Assay type: functional
Readout Name: MIC (µM)

Completed entries (count: 2):
Compound	Output Unit	MIC
CC[C@@H]1C=C(c2ccc(C)cc2)C(=O)O1	µM	500
COc1ccc(C2=CC(C)OC2=O)cc1 (configuration not stated)	µM	1000

(A) CC1C=C(c2ccc(Br)cc2)C(=O)O1 (configuration not stated)
(B) CC1C=C(c2ccc(Cl)c(Cl)c2)C(=O)O1 (configuration not stated)
Pick one, A or B : lowest reported MIC. In your reply, give the label of the chosen option.
B

(A) CC1C=C(c2cccc(Br)c2)C(=O)O1 (configuration not stated)
(B) CC1C=C(c2cccc(F)c2)C(=O)O1 (configuration not stated)
(C) CC1C=C(c2ccc(Cl)cc2)C(=O)O1 (configuration not stated)
(D) CC1C=C(c2ccc([N+](=O)[O-])cc2)C(=O)O1 (configuration not stated)
Hello, I need these entries ordered by MIC, highest reading first. Thanks! Write the labels in rank order as requested.
D, B, A, C

---

- Test system: Trichosporon beigelii
- Method: In vitro minimum inhibitory concentration of compound was determined against Trichosporon beigelii after 24 hr r
- Type: functional
Readout Name: MIC (µM)

Completed entries (count: 2):
Compound	System Name	MIC / µM
CC1C=C(c2ccc(Br)cc2)C(=O)O1 (stereo not given)	Trichosporon beigelii	125
CC(=O)N1CCN(c2ccc(OC[C@H]3CO[C@](Cn4ccnc4)(c4ccc(Cl)cc4Cl)O3)cc2)CC1 [KETOCONAZOLE]	Trichosporon beigelii	0.12

(A) CC1C=C(c2cccc(Br)c2)C(=O)O1 (stereo not given)
(B) CC[C@@H]1C=C(c2ccc(C)cc2)C(=O)O1
# returns the entry with the larger MIC; inputs A and B In your reply, give the label of the chosen option.
B

Hey, just so you know, these numbers are from ChEMBL document CHEMBL1133284.
